B1: glmS ribozyme (parent)
chain: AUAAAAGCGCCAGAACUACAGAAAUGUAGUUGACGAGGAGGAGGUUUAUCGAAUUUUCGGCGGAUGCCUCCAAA

Variants of: B1
Assay: self-cleavage kobs at 640 uM GlcN6P; higher = faster cleavage; RNA array
Conditions: with glucosamine-6-phosphate
This sample holds only a part of the variants without activity.
# self-cleavage kobs at 640 uM GlcN6P listing for each entry below
measured_endpoint: self-cleavage kobs at 640 uM GlcN6P (s⁻¹)

[[record]]
variant_identifier = "G7U A33U G37U G63A"
measured_endpoint = "self-cleavage kobs at 640 uM GlcN6P"
censoring_qualifier = "<"
numeric_readout = "1e-05"

[[record]]
variant_identifier = "A6G C10U G43C"
measured_endpoint = "self-cleavage kobs at 640 uM GlcN6P"
censoring_qualifier = "<"
numeric_readout = "1e-05"

[[record]]
variant_identifier = "U45A U57C"
measured_endpoint = "self-cleavage kobs at 640 uM GlcN6P"
censoring_qualifier = "="
numeric_readout = "3.94e-05"

[[record]]
variant_identifier = "G13U U30G G35C"
measured_endpoint = "self-cleavage kobs at 640 uM GlcN6P"
censoring_qualifier = "<"
numeric_readout = "1e-05"

[[record]]
variant_identifier = "G38C C58U"
measured_endpoint = "self-cleavage kobs at 640 uM GlcN6P"
censoring_qualifier = "<"
numeric_readout = "1e-05"

[[record]]
variant_identifier = "G59C A64G U69G"
measured_endpoint = "self-cleavage kobs at 640 uM GlcN6P"
censoring_qualifier = "<"
numeric_readout = "1e-05"

[[record]]
variant_identifier = "U31C A53G"
measured_endpoint = "self-cleavage kobs at 640 uM GlcN6P"
censoring_qualifier = "="
numeric_readout = 0.00167

[[record]]
variant_identifier = "G9C A12C C19A G51U U54G G63C C70G"
measured_endpoint = "self-cleavage kobs at 640 uM GlcN6P"
censoring_qualifier = "<"
numeric_readout = "1e-05"

[[record]]
variant_identifier = "C11G A15C A33C C34G U55C"
measured_endpoint = "self-cleavage kobs at 640 uM GlcN6P"
censoring_qualifier = "<"
numeric_readout = "1e-05"

[[record]]
variant_identifier = "G32U A42U"
measured_endpoint = "self-cleavage kobs at 640 uM GlcN6P"
censoring_qualifier = "<"
numeric_readout = "1e-05"

[[record]]
variant_identifier = "U56G G66U"
measured_endpoint = "self-cleavage kobs at 640 uM GlcN6P"
censoring_qualifier = "="
numeric_readout = 0.000237

[[record]]
variant_identifier = "A15C C16U"
measured_endpoint = "self-cleavage kobs at 640 uM GlcN6P"
censoring_qualifier = "="
numeric_readout = 0.000777

[[record]]
variant_identifier = "U65G C67U"
measured_endpoint = "self-cleavage kobs at 640 uM GlcN6P"
censoring_qualifier = "="
numeric_readout = 0.000459

[[record]]
variant_identifier = "A53G A64U U69G"
measured_endpoint = "self-cleavage kobs at 640 uM GlcN6P"
censoring_qualifier = "="
numeric_readout = 0.000772

[[record]]
variant_identifier = "A6U U54A"
measured_endpoint = "self-cleavage kobs at 640 uM GlcN6P"
censoring_qualifier = "="
numeric_readout = "9.76e-05"

[[record]]
variant_identifier = "A12U G37A"
measured_endpoint = "self-cleavage kobs at 640 uM GlcN6P"
censoring_qualifier = "="
numeric_readout = 0.00168

[[record]]
variant_identifier = "U45C C71A"
measured_endpoint = "self-cleavage kobs at 640 uM GlcN6P"
censoring_qualifier = "="
numeric_readout = 0.00014

[[record]]
variant_identifier = "C34A G44U C50A"
measured_endpoint = "self-cleavage kobs at 640 uM GlcN6P"
censoring_qualifier = "<"
numeric_readout = "1e-05"

[[record]]
variant_identifier = "U45G U55G"
measured_endpoint = "self-cleavage kobs at 640 uM GlcN6P"
censoring_qualifier = "="
numeric_readout = 0.00148

[[record]]
variant_identifier = "A12U C58A G60U"
measured_endpoint = "self-cleavage kobs at 640 uM GlcN6P"
censoring_qualifier = "<"
numeric_readout = "1e-05"

[[record]]
variant_identifier = "U57A C68U"
measured_endpoint = "self-cleavage kobs at 640 uM GlcN6P"
censoring_qualifier = "="
numeric_readout = "3.78e-05"

[[record]]
variant_identifier = "G32A C58A C68U"
measured_endpoint = "self-cleavage kobs at 640 uM GlcN6P"
censoring_qualifier = "="
numeric_readout = "8.56e-05"

